# target-entity: Voltage-gated potassium channel subunit beta-2 (Rattus norvegicus)
# protocol: KvBeta enzyme negative modulators, primary screen, biochemical, NADPH fluorescence (AID 622);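 further: slope of raw intensity against log time taken from 70 to 1610 s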
# condition: recombinant KvBeta, 4-cyanobenzaldehyde reduction, at 10 µM, stronger effect = higher value
Would you mind telling me the reported fluorescence slope of each entry?
Field format: numeric only.

Challenge: Fetch value of fluorescence slope on Voltage-gated potassium channel subunit beta-2 (Rattus norvegicus) for CN(C(=O)COc1cc(=O)n(C)c2ccccc12)c1ccc(Br)cc1 .
Response given: -0.513

Challenge: Enter recorded fluorescence slope with Voltage-gated potassium channel subunit beta-2 (Rattus norvegicus) for O=C(Nc1ccccc1-c1ccccc1)NC1CCN(C(=O)N2CCOCC2)CC1 here.
Response given: -0.5

Challenge: Enter fluorescence slope (test system Voltage-gated potassium channel subunit beta-2 (Rattus norvegicus)) for CC1(C)Cc2c(C#N)c(SCC(=O)c3ccccc3)nc(N3CCOCC3)c2CS1
Response given: -0.491

Challenge: Give the observed fluorescence slope of CCCCCCOc1ccc(C(=O)n2cnc(N)n2)cc1 for Voltage-gated potassium channel subunit beta-2 (Rattus norvegicus).
Response given: -0.508

----------
# target-entity: Voltage-gated potassium channel subunit beta-2 (Rattus norvegicus) (UniProt P62483)
# Sequence (P62483 whole entry, looked up): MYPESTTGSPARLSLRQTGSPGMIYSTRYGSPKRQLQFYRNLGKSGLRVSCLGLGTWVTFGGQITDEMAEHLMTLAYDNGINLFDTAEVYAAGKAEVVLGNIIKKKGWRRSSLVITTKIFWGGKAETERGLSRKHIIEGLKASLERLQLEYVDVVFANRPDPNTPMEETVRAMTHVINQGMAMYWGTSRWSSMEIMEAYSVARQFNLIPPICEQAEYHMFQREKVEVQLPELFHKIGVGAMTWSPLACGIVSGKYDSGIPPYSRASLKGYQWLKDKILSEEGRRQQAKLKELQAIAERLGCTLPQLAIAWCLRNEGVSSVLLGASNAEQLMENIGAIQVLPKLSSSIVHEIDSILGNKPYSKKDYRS
# protocol: KvBeta positive modulators, primary screen, biochemical, NADPH fluorescence (AID 623);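 further: fluorescence intensity change per second fitted from 20 to 320 s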
# condition: Recombinant KvBeta, NADPH fluorescence decrease slope, 10 min; at 10 µM; stronger effect = lower value
Calls of active or inactive are those of the source.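 The calls were made as follows: active = NADPH fluorescence slope more negative than the mean of all samples by about 3 SD, 99.7% confidence; inactive = the rest.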
Please respond with reported NADPH fluorescence slope for every item in the list.

Challenge: Report NADPH fluorescence slope, nothing else, for this compound: CCOc1cccc(OCCCCn2ccnc2)c1
Response given: 5e-05 (inactive)

Challenge: Identify NADPH fluorescence slope associated with the compound c1ccc(-n2ncc3c(NC4CCCCCC4)ncnc32)cc1
Response given: -1.1e-06 (inactive)

Challenge: Please report NADPH fluorescence slope for the following compound: CC1CC(C)CN(Cc2nc3c(c(=O)n(C)c(=O)n3C)n2Cc2ccccc2Cl)C1 (stereo not drawn)
Response given: -4.6e-05 (inactive)

Challenge: Recall and state the measured NADPH fluorescence slope for CC(C)(C)NC(=O)Cn1c(=O)oc2ccc(Cl)cc21 .
Response given: 6.2e-05 (inactive)

Challenge: Return NADPH fluorescence slope (reported value) for this compound: CCCN(CCC)S(=O)(=O)c1ccc(NS(C)(=O)=O)cc1
Response given: 1e-05 (inactive)

Challenge: Report measured NADPH fluorescence slope; entry is COc1ccc(C(O)C(CN2CCOCC2)c2ccccc2)cc1 (stereo not drawn)
Response given: -0.00013 (inactive)

Challenge: Item CCOC(=O)C1=C(C)N=C2SCCC(=O)N2C1c1cc(Br)ccc1OC (stereo not drawn) : provide NADPH fluorescence slope
Response given: 7.4e-06 (inactive)

Challenge: For the compound CCOC(=O)c1cc(CC)sc1NC(=O)CCC(=O)O , report NADPH fluorescence slope.
Response given: -4.9e-06 (inactive)

----------
Kindly supply the reported nuclei count values for the records listed here.
# protocol: inhibitors of mutant huntingtin aggregation, primary screen, imaging, exon1htt(103Q)mCFP cells, high-content imaging (AID 483);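 further: compound exposure lasted 3 days before fixation; percent of the per-plate median nuclei count of sample wells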
# condition: exon1htt(103Q)mCFP cell line, aggregate imaging, at 2 µM; measured here: cell count, toxicity
Field: numeric (%). Do not append units.

Challenge: Output nuclei count of Cn1c2c(c(=O)n(C)c1=O)C(c1cccc(Br)c1)C1C(=O)c3ccccc3C1=N2 (stereo not drawn)
Response given: 110

Challenge: Tell me measured nuclei count for Nc1cc(=O)[nH]c(SCC(=O)Nc2ccc(Br)cc2)n1 please.
Response given: 108

Challenge: Give reported nuclei count value for COc1cccc(-c2noc(C3CCCN(C(=O)Cc4ccccc4)C3)n2)c1 (stereo not drawn)
Response given: 109

Challenge: Specify measured nuclei count for Cc1noc(C)c1CSc1nnc2scc(-c3ccc(Cl)cc3)n12 .
Response given: 120

Challenge: Determine from records and report nuclei count for C=CCSC1=C(C#N)C(c2ccccc2)CC(=O)N1 (stereo not drawn)
Response given: 101

Challenge: Supply nuclei count value. Item: O=C1N2c3ccccc3CCc3cccc(c32)C1(O)C(F)(F)F (stereo not drawn)
Response given: 82.6

Challenge: Dear colleague, please send me the reported nuclei count for CCN1C(=O)c2ccccc2S(=O)(=O)c2ccc(C(=O)NCc3cccnc3)cc21 when you can.
Response given: 107

Challenge: Quote nuclei count reported for O=C(O)C1CCCN(S(=O)(=O)c2ccc(Cl)s2)C1 (stereo not drawn) please.
Response given: 88.8
